Every entry's value here was drawn from the supplement of paper PMC12667976.

B1: library; numbered along this chain (parent)
chain: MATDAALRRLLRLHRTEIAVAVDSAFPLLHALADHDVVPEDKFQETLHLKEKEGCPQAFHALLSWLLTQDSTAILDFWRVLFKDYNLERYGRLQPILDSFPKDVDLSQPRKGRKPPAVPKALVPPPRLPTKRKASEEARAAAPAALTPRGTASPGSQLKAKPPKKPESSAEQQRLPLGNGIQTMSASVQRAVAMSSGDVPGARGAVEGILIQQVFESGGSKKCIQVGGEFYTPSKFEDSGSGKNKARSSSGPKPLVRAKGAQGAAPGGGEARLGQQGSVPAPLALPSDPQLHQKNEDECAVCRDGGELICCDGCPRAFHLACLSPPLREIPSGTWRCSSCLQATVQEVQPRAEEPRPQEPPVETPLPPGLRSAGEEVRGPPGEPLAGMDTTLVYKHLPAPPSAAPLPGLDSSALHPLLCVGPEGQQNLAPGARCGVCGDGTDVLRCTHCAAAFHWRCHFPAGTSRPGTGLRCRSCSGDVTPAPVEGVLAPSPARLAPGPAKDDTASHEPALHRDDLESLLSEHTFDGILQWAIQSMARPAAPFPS

- Variants of: B1
- test: AIRE transcriptional activation functional score (insulin promoter-GFP; nonsense median 0, synonymous median 1) (normalised score); higher = higher AIRE activity (more reporter activation)
- conditionSummary: with insulin promoter-GFP reporter in HEK293
reportedEndpoint: AIRE transcriptional activation functional score
Reply briefly: the number, and no unit.

Solved entries:
mutationList | measured
V22D | -0.245
C337P | 1.47
T344R | 1.08
S476G | 0.844
W455F | 1.3
K114H | 0.207
P95G | 1.01
S135M | -0.155
R139E | 0.912
A432L | 0.822

Please give the documented AIRE transcriptional activation functional score of "E88K"
0.437

Please give the documented AIRE transcriptional activation functional score of "R247K"
1.2

Please give the documented AIRE transcriptional activation functional score of "V199P"
0.723

Please give the documented AIRE transcriptional activation functional score of "L529H"
-0.499

Please give the documented AIRE transcriptional activation functional score of "P162F"
1.37
